Biological target: CYP2D6 (Homo sapiens, UniProt P10635)
Sequence (P10635 whole entry): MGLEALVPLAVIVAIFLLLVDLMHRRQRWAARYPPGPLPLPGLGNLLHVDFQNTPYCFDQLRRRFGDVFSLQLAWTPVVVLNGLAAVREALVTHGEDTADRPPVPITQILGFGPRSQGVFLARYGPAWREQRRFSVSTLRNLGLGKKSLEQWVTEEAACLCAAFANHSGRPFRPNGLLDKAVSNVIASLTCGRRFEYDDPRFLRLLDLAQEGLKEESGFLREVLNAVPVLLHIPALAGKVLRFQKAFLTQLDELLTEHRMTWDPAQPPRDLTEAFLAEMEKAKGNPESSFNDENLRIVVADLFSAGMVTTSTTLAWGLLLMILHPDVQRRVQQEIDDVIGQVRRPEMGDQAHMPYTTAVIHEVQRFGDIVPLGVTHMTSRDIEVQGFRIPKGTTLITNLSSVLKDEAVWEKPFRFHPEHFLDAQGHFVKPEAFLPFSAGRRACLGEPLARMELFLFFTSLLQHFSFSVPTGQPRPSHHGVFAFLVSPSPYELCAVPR
Assay: Inhibition of CYP2D6 in human liver microsomes assessed as reduction in dextromethorphan O-demethylase activity at 10 uM preincubated for 5 mins followed by addition of NADPH-regenerating system and measured after 15 mins by LC-MS/MS analysis relative to control
Type: ADME
Conditions: probe dextromethorphan (O-demethylase activity), time 20 min
Outcome label depends on inhibition at 0.25 h, 10 µM relative to 20%: at/above gives yes (1), below gives no (0).

Check if inhibition at 0.25 h, 10 µM >= 20% (inclusive). Item: CN1CCCC1CCOc1ccc(/C(=C(/CCCO)c2ccccc2)c2ccc(Br)cc2)cc1.Cl (stereo unspecified)
no (0)

And then CN1CCCC1CCOc1ccc(/C(=C(/CCCO)c2ccccc2)c2ccc(O)cc2)cc1.Cl (stereo unspecified) , what is it?
no (0)

And then CN1CCC[C@H]1COc1ccc(/C(=C(/CCCO)c2ccccc2)c2ccc(O)cc2)cc1.Cl , what is it?
no (0)

And then CN1CCC[C@H]1COc1ccc(/C(=C(/CCCO)c2ccccc2)c2ccc(Br)cc2)cc1.Cl , what is it?
yes (1)

And then CN1CCC[C@@H]1COc1ccc(/C(=C(/CCCO)c2ccccc2)c2ccc(O)cc2)cc1.Cl , what is it?
no (0)

And then CN(C)CCOc1ccc(/C(=C(/CCCO)c2ccccc2)c2ccc(O)cc2)cc1 , what is it?
no (0)
